target: pooled human IgG (human IgG1,2,3 and 4)
Binary call on Enzyme Activity Endpoint Assay: Fab′2 with cut-off 800 ng/µL: strictly below means criterion met, and equality or higher means criterion not met.

Field: example entries. Status: answers known.
protein	assigned-class
PRT-259 (protein) MVTSVWTKGVTPPTNFTYGEDVLHAPYVANQGWYDITKTFNGKDNLLCGAATAGNMLHWWFDQNKEQIENYLKKHPEKQKINFNGEQLFDVKEAIDTKDSQLDSKLFEYFKEKAFPNLSTKHLGVFPDHVIDMFINGYRLSLLNHGPTPVKRGSKDKRGGIFDAVFTRGVQSKLLTNRHDFKEKTLKEISDLIKQELTEGKALGISHTYANVRINHVINLWGADFDAEGNLEAIYVTDSDTNASIGMKKYFVGVNSSGKVAISAKEIEEDNIGAQVLGLFTLSTGQDIWNQTN	criterion not met
PRT-496 (protein) MVTSVWTKGVTPPTDFIKGEDVFHAPYKAGQGWYDITKTFNGKDDLLCGAATAGNMLHWWFDQNKEYIEAYLKKHPEKQKIMFGDQELLDVRKAINTKGSQKNSELFNYFRDKAFPNLSARRLGVMPDLVLDMFINGYYLNVTKTQTTDVNRTYQEKDKRGGIFDAVFTRGDQSKLLTSRHDLKNKGLKEISDLIKQELTEGKALGLSHTYANVRINHVINLWGADFDSDGNLKAIYVTDSDSNASIGMKKYFVGVNSAGKVAISAKEIKEDNIGAQVLGLFTLSTGQDIWNQTNLEHHHHHH	criterion met
PRT-491 (protein) MVTSVWTKGVTPPTDFIYGEDVLHAPYKAGQGWYDITKTFNGKDNLLCGAATAGNMLHWWFDQNKEQIENYLKKHPEKQKIIFNNQELFDLKAAIDTKDSQLDSKLFEYFKEKAFPYLSTKHLGVFPDHVIDMFINGYRLSLTNHGPTPVKRGSKDKRGGIFDAVFTRGVQSKLLTNRHDLKNKTLKEISDLIKQELTEGKALGISHTYANVRINHVINLWGADFDAEGNLEAIYVTDSDTNASIGMKKYFVGVNSNGKVAISAKEIEEDNIGAQVLGLFTLSTGQDIWNQTNLEHHHHHH	criterion met
PRT-104 (protein) MANQEIRYSEVTPYHVTSVWTKGVTPPAKFTQGEDVFHAPYVANQGWYDITKTFNGKDDLLCGAATAGNMLHWWFDQNKEKIEAYLKKHPDKQKIMFGDQELLDVRKVINTKGDQTNSELFNYFRDKAFPGLSARRIGVMPDLVLDMFINGYYLNVTKTQTTDVNRTYQEKDRRGGIFDAVFTRGDQSKLLTSRHDFKEKNLKEISDLIKKELTEGKALGLSHTYANVRINHVINLWGADFDSNGNLKAIYVTDSDSNASIGMKKYFVGVNSAGKVAISAKEIKEDNIGAQVLGLFTLSTGQDSWNQTN	criterion met
PRT-480 (protein) MITSVWTKGVTPPTDFIYGEDVLHAPYKAGQGWYDITKAFDGGDDLLCGAATAGNMLHWWFDQNKEQIENYLKKHPEKQKINFNGEQMFDVKEAIDTKDSQTNSELFNYFKEKAFPYLSTKHLGVFPDHVIDMFINGYRLSLTNHGPTPVKRGSKDPRGGIFDAVFTRGDQSKLLTNRHDLKNKTLNEISQLIKQELTEGKALGISHTYANVRINHVINLWGADFDAEGNLEAIYVTDSDSNASIGMKKYFVGVNSNGKVAISAKEIEEDNIGAQVLGLFTLSTGQDIWNQTNLEHHHHHH	criterion not met
PRT-291 (protein) MVTSVWTKGVTPPADFTQGEDVFHAPYVANQGWYDITKTFNGKDDLLCGAATAGNMLHWWFDQNKEYIEAYLKKHPEKQKIMFGDQELLDVRKAINTKGSQKNSELFNYFRDKAFPNLSARRLGVMPDLVLDMFINGYYLNVTKTQTTDVNRTYQEKDKRGGIFDAVFTRGDQSKLLTSRHDFKEKGLKEISDLIKQELTEGKALGLSHTYANVRLNHVINLWGADFDSDGNLKAIYVTDSDSNASIGMKKYFVGVNSSGKVAISAKEIKEDNIGAQVLGLFTLSTGQDIWNQTN	criterion not met

Record PRT-252 (protein) MVTSVWTKGVTPPTNFTYGEDVLHAPYVANQGWYDITKLFNGKDDLLCGAATAGNMLHWWFDQNKEQIENYLKKHPEKQKINFNGEQMFDVKEAIDTKDSQLDSKLFEYFLEKAFPNLSTKHLGVFPDHVIDMFINGYRLSLLNHGPTPVKRGSKDPRGGIFDAVFTRGDQSKLLTNRHDFKEKTLKEISDLIKQELTEGKALGISHTYANGRINHVINLWGADFDAEGNLEAIAVTDSDSNASIGMKKYFVGVNSSGKVAISAKEIEEDNIGAQVLGLFTLSTGQDIWNQTN : is its Enzyme Activity Endpoint Assay: Fab′2 strictly below 800 ng/µL?
criterion met

Record PRT-372 (protein) MSQTEDSESLQRLRDIEDFQAEKKKQNVVYTKWLDGVDVKDHDFRKIVDGNSAYYATPLLNGRGFYDINKDFNRDNDKCAAAVAANMFHYWLDRNRDNVDRFLRQNPEKHGIIELPDGQLKLSDFLNTYESDDGYRDKSKLFDFISENFNGPVWTDKLLDNYINGYAYNSKYGRTIEDSTKNTSKINFFKEVFNEKILTNNHSIRNQNEFSVLLIEALYTGKAIGLSYGPAGLRHGLGHIISVWGADLDADGNVVAIYVTDSDDKKLTIGDERVGLKRYKISTDDEGRLRLTAYEETHNTGGQIRGLWTLDTGKQAWADYFDKTEQTGTDQAEQ : is its Enzyme Activity Endpoint Assay: Fab′2 strictly below 800 ng/µL?
criterion met
